Taken from paper PMC6102691.

Below, each of the compounds is paired with its reported Kd value.
target: BRD4 (Homo sapiens, UniProt O60885)

- compound: "CN1C(=O)C(C)(C)c2cc(=O)n(Cc3ccccc3C#N)cc21 [Compound 17o]"
  endpoint.result: "> 200 µM"
- compound: "CN1C(=O)C(C)(C)c2cc(=O)n(Cc3ccc(Br)cc3)cc21 [Compound 17k]"
  endpoint.result: "48 µM"
- compound: "CC1(C)C(=O)Nc2cn(Cc3ccccc3)c(=O)cc21 [Compound 15c]"
  endpoint.result: "> 200 µM"

Req: Enter reported Kd observed with BRD4 (Homo sapiens, UniProt O60885) for CN1C(=O)C(C)(C)c2cc(=O)n(Cc3ccc(C(=O)O)cc3)cc21 [Compound 17f]
Resp: > 200 µM

Req: Request - read-out Kd | tested on BRD4 (Homo sapiens, UniProt O60885) | compound CCC1(CC)C(=O)N(C)c2cn(Cc3ccc(Cl)cc3)c(=O)cc21 [Compound 18a]
Resp: > 200 µM

Req: Lab note: need Kd for Cn1cc2c(cc1=O)C(C)(C)C(=O)N2Cc1ccccc1 [Compound 14b] on BRD4 (Homo sapiens, UniProt O60885), anyone have it?
Resp: > 200 µM
